Source: the supplement of paper PMC10567573

B1: KLHL14 (parent)
chain: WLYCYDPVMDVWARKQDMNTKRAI

variants of: B1; assay: protein stability index of a GFP-peptide fusion (GPS, HEK-293T) (PSI 1-6); higher = more stable; details: c terminus: a fixed tail appended;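 also: lentivirally expressed fusions sorted by FACS into six bins by GFP to DsRed ratio, PSI derived from sequencing read proportions per bin multiplied by bin number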
# label = TRUE if protein stability index >= 2 else FALSE

Req: Decide: is the reported value of protein stability index for WLYCYDPVMDVWARKWDMNTKRAI [Q16W] equal to or greater than 2?
Resp: TRUE

Req: Reported protein stability index at or above 2? WLYCYEPVMDVWARKQDMNTKRAI [D6E]
Resp: FALSE

Req: Please check the record WLYCYDPVMDVWARKQDMNTKRTI [A23T] and state if its protein stability index is at or above 2.
Resp: FALSE

Req: Could you please find out whether WLYCYDPDMDVWARKQDMNTKRAI [V8D] has protein stability index that meets 2 or exceeds it?
Resp: TRUE

Req: Exam item: decide whether the reported protein stability index for WLYCYDPVMDVWARKQDMNTSRAI [K21S] is at least 2.
Resp: FALSE

Req: Is reported protein stability index greater than or equal to 2 here: WLYCYDPVMEVWARKQDMNTKRAI [D10E]
Resp: TRUE

Req: Decide: is the reported value of protein stability index for WLYCSDPVMDVWARKQDMNTKRAI [Y5S] equal to or greater than 2?
Resp: TRUE

Req: Test whether the variant WLYCYDPMMDVWARKQDMNTKRAI [V8M] records protein stability index of 2 or higher.
Resp: TRUE

Req: For this variant, is measured protein stability index 2 or higher? WLYCYDPVMDVWARKQDMNTKRNI [A23N]
Resp: FALSE

Req: Is it the case that WLYCYDPHMDVWARKQDMNTKRAI [V8H] has protein stability index reaching or exceeding 2?
Resp: TRUE

Req: Determine whether measured protein stability index meets or exceeds 2 for WLYCYDPVMDVNARKQDMNTKRAI [W12N]
Resp: TRUE

Req: # check: protein stability index of WLYCYDPVMDVMARKQDMNTKRAI [W12M] is greater than or equal to 2
Resp: FALSE

Req: Hello, I need to know if WLYCWDPVMDVWARKQDMNTKRAI [Y5W] has measured protein stability index not below 2. Thanks!
Resp: FALSE

Req: Could you verify whether the entry WLYCYDPVMDVQARKQDMNTKRAI [W12Q] shows protein stability index of no less than 2?
Resp: FALSE

Req: Quick check, protein stability index >= 2? SLYCYDPVMDVWARKQDMNTKRAI [W1S]
Resp: TRUE

Req: Does protein stability index meet or surpass 2 for YLYCYDPVMDVWARKQDMNTKRAI [W1Y] ?
Resp: TRUE

Req: Is protein stability index for WGYCYDPVMDVWARKQDMNTKRAI [L2G] at or above 2?
Resp: TRUE

Req: Would you say WLYCYDPVMIVWARKQDMNTKRAI [D10I] shows protein stability index at minimum 2?
Resp: FALSE

Req: Threshold query (protein stability index >= 2) on WLYCYDPVMDVWANKQDMNTKRAI [R14N]
Resp: FALSE

Req: Would you say WLYCYDPVMDVWDRKQDMNTKRAI [A13D] shows protein stability index at minimum 2?
Resp: TRUE

Req: Kindly determine if protein stability index recorded for WLYCYDPVMDVWARKQDMATKRAI [N19A] is above or exactly 2.
Resp: FALSE

Req: Would you say WLYTYDPVMDVWARKQDMNTKRAI [C4T] shows protein stability index at minimum 2?
Resp: TRUE
